- Tested on: RAR GAMMA (Homo sapiens)
- Sequence (P13631 185-454 limits assumed): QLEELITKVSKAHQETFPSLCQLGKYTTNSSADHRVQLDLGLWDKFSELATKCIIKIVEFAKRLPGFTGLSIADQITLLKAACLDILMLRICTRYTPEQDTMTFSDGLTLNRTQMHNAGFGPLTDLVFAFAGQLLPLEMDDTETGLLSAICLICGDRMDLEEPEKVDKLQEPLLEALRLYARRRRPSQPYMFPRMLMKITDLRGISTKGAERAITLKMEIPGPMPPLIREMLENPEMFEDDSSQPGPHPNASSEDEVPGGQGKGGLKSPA
- Assay procedure: Transactivation test (luciferase reporter, HeLa stable transfectants), RAR gamma
- Settings: HeLa cells; apparent Kd from Schild regression of crossed curves against reference agonist; read-out: RAR GAMMA Kd app
Quick reference for Kd among some compounds
State just the number; it will be interpreted in nM.

Sample CC(C)(C)c1ccc(-c2cc(C(=O)/C=C/c3ccc(C(=O)O)cc3)cc3c2C(C)(C)CCC3(C)C)cc1 [Ex. 8] — what was its Kd?
0.25

Same question for Cc1ccc(-c2cc(C(=O)/C=C/c3ccc(C(=O)O)cc3)cc3c2C(C)(C)CCC3(C)C)cc1 [Ex. 7] please.
1

Same question for Cc1ccc(-c2cc(C(O)C#Cc3ccc(C(=O)O)cc3)cc3c2C(C)(C)CCC3(C)C)cc1 (stereo not shown) [Ex. 5] please.
15

Same question for Cc1ccc(-c2cc(C(O)/C=C/c3ccc(C(=O)O)cc3)cc3c2C(C)(C)CCC3(C)C)cc1 (stereo not shown) [Ex. 9] please.
30
